# credit: patent US9663510B2

# procedure-details: Metabolic stability in vitro, rat liver microsomes (calculation of Fmax)
# Format: in vitro ADME
# cond: maximal oral bioavailability calculated from microsomal half-life, 1 μM
Threshold check on Rat liver microsomes; Fmax [%]: at or above 60% gives 1, strictly below gives 0.

A selection of reference data follows.
- C[C@@H](C(=O)Nc1ccc(-c2ccc3nc(Nc4ccc(C(N)=O)cc4OCC(F)(F)F)nn3c2)cc1)c1ccc(F)cc1: 1
- COc1cc(S(C)(=O)=O)ccc1Nc1nc2ccc(-c3ccc(NC(=O)[C@H](N)c4ccc(F)cc4)cc3)cn2n1: 1
- N#Cc1ccccc1Nc1nc2ccc(-c3ccc(NC(=O)C(F)(F)c4ccccc4)cc3)cn2n1 [reference compound]: 0
- COc1ccccc1Nc1nc2ccc(-c3ccc(NC(=O)Cc4ccccc4)cc3)cn2n1 [reference compound]: 0
- N#Cc1ccccc1Nc1nc2ccc(-c3ccc(NC(=O)C(F)c4ccccc4)cc3)cn2n1 (centres unmarked) [reference compound]: 0

Task: Check the entry COc1cc(C(=O)N2CCOCC2)ccc1Nc1nc2ccc(-c3ccc(NC(=O)Cc4ccc(F)cc4)cc3)cn2n1 [reference compound] : does Rat liver microsomes; Fmax [%] equal or exceed 60%?
Output: 0

Task: Kindly determine if Rat liver microsomes; Fmax [%] recorded for COc1cc(C(=O)N2CCC2)ccc1Nc1nc2ccc(-c3ccc(NC(=O)[C@H](C)c4ccc(F)cc4)cc3)cn2n1 is above or exactly 60%.
Output: 1

Task: Can COc1cc(C(N)=O)ccc1Nc1nc2ccc(-c3ccc(NC(=O)[C@H](C)c4ccc(F)cc4)cc3)cn2n1 be said to have Rat liver microsomes; Fmax [%] at or above 60%?
Output: 1

Task: Can CCOc1cc(S(C)(=O)=O)ccc1Nc1nc2ccc(-c3ccc(NC(=O)[C@H](C)c4ccc(F)cc4)cc3)cn2n1 be said to have Rat liver microsomes; Fmax [%] at or above 60%?
Output: 1

Task: Given the entry COc1cc(N2CCOC2=O)ccc1Nc1nc2ccc(-c3ccc(NC(=O)[C@H](C)c4ccc(F)cc4)cc3)cn2n1 , answer whether its Rat liver microsomes; Fmax [%] meets or surpasses 60%.
Output: 0
